Data origin: patent US20260242419A1

# test-system: Recombinant human IL-1β (BioLegend 579404) (human, UniProt P01584 117-269)
# protocol-details: cell-based or functional assay
Starred links: 1 amine or outer side, 2 acyl side, 3 side chain; linkers in the order of their positions; H or OH if unused. Non-standard residues stand in square brackets, D forms with d. No end group written: not given here. dProc3CH24Pal = (2R,3S)-3-(4-pyridylmethyl)pyrrolidine-2-carboxylic acid, O=C([C@H]1[C@@H](Cc2ccncc2)CCN1[*:1])[*:2]; Phe(4-(4-Ac-piperazinyl)) = CC(=O)N1CCN(c2ccc(C[C@H](N)C(=O)O)cc2)CC1; Trp(4-Cl)(βS-Me) = C[C@@H](c1c[nH]c2cccc(Cl)c12)[C@H](N)C(=O)O; dPro(4R-(4-pyridylmethyl)) = O=C(O)[C@H]1C[C@@H](Cc2ccncc2)CN1; Trp(βS-Me,4-F) = C[C@@H](c1c[nH]c2cccc(F)c12)[C@H](N)C(=O)O; Bip(4'-COOH) = N[C@@H](Cc1ccc(-c2ccc(C(=O)O)cc2)cc1)C(=O)O; Ala(1-bicyclo(1.1.1)pentyl) = N[C@@H](CC12CC(C1)C2)C(=O)O; dPro(4R-Bzl(4-F)) = O=C(O)[C@H]1C[C@@H](Cc2ccc(F)cc2)CN1; Ala(piperazin-1-yl) = N[C@@H](CN1CCNCC1)C(=O)O; Ala(pyrimidin-5-yl) = N[C@@H](Cc1cncnc1)C(=O)O; Phe(4-COOH) = N[C@@H](Cc1ccc(C(=O)O)cc1)C(=O)O; Pro(cis-4-F) = O=C(O)[C@@H]1C[C@H](F)CN1; dPhe(4-F) = N[C@H](Cc1ccc(F)cc1)C(=O)O; Ala(4-THP) = N[C@@H](CC1CCOCC1)C(=O)O; cisHyp = O=C(O)[C@@H]1C[C@H](O)CN1; d(αMeD) = C[C@@](N)(CC(=O)O)C(=O)O; 4Pal = N[C@@H](Cc1ccncc1)C(=O)O; αMeD = C[C@](N)(CC(=O)O)C(=O)O; d(αMeS) = C[C@@](N)(CO)C(=O)O; NMeDab = CN[C@@H](CCN)C(=O)O; αMeK = C[C@](N)(CCCCN)C(=O)O; Dab = NCC[C@H](N)C(=O)O; Aib = CC(C)(N)C(=O)O; Sar = CNCC(=O)O
Recorded MRC5 IC50 for the following binders

binder | MRC5 IC50, nM
cyclo([Bip(4'-COOH)][4Pal][Phe(4-COOH)]G[Pro(cis-4-F)][Trp(βS-Me,4-F)][Aib]SW[Aib][Ala(pyrimidin-5-yl)]Q[NMeDab]G[dProc3CH24Pal]) (ring closure inferred) [SEQ ID NO: 241] | 0.018
[Phe(4-(4-Ac-piperazinyl))][4Pal][Phe(4-COOH)]G[Pro(cis-4-F)][Trp(βS-Me,4-F)][Aib]SW[αMeD][Ala(pyrimidin-5-yl)]Q[Dab]G[dPro(4R-Bzl(4-F))] (lactam (positions not given here); also: macrolactam ring, closure sites not given here) [SEQ ID NO: 184] | 0.014
cyclo([Bip(4'-COOH)][Ala(1-bicyclo(1.1.1)pentyl)][Phe(4-COOH)]G[Pro(cis-4-F)][Trp(βS-Me,4-F)][Aib]SW[d(αMeD)][Ala(pyrimidin-5-yl)]QSG[dPro(4R-(4-pyridylmethyl))]) (ring closure inferred) [SEQ ID NO: 158] | 0.013
cyclo([Bip(4'-COOH)][4Pal][Phe(4-COOH)]G[cisHyp][Trp(βS-Me,4-F)][Aib]SW[αMeD][Ala(4-THP)]Q[Dab][Sar][dPro(4R-(4-pyridylmethyl))]) (ring closure inferred; not fully specified (bridges); printed as Bip4CO2H-4Pal-Phe4COOH-G-Proc4OH-SbMeW4F-Aib-S-W-aMeD-AlaTHP4-Q-Dab-Sar-dProc4CH24Pal, cyclic (macrolactam)) [SEQ ID NO: 210] | 0.029
cyclo([Bip(4'-COOH)][4Pal][Phe(4-COOH)]G[Pro(cis-4-F)][Trp(βS-Me,4-F)][Aib]AW[αMeK][Ala(pyrimidin-5-yl)]Q[Dab]G[dPro(4R-Bzl(4-F))]) (ring closure inferred; not fully specified (bridges); printed as Bip4CO2H-4Pal-Phe4COOH-G-Proc4F-SbMeW4F-Aib-A-W-aMeK-PyrimAla-Q-Dab-G-dProc4Bn4F) [SEQ ID NO: 134] | 0.021
cyclo([Bip(4'-COOH)][4Pal][Phe(4-COOH)]G[Pro(cis-4-F)][Trp(βS-Me,4-F)][Aib]EW[Aib][Ala(piperazin-1-yl)]QSG[dPro(4R-Bzl(4-F))]) (ring closure inferred) [SEQ ID NO: 122] | 0.019
cyclo([Bip(4'-COOH)][Ala(1-bicyclo(1.1.1)pentyl)][Phe(4-COOH)]G[Pro(cis-4-F)][Trp(βS-Me,4-F)][Aib]SW[αMeK][Ala(piperazin-1-yl)]QSG[dPro(4R-Bzl(4-F))]) (ring closure inferred; not fully specified (bridges); printed as Bip4CO2H-AlaPent-Phe4COOH-G-Proc4F-SbMeW4F-Aib-S-W-aMeK-AlaPiperaz-Q-S-G-dProc4Bn4F, cyclic (macrolactam)) [SEQ ID NO: 175] | 0.037
[Bip(4'-COOH)][4Pal][Phe(4-COOH)]G[Pro(cis-4-F)][Trp(βS-Me,4-F)][Aib]SW[d(αMeD)][dPhe(4-F)]Q[Dab]G[dProc3CH24Pal] (lactam (positions not given here); also: macrolactam, ring places not given here) [SEQ ID NO: 236] | 0.021
cyclo([Bip(4'-COOH)][4Pal][Phe(4-COOH)]G[cisHyp][Trp(βS-Me,4-F)][Aib]SW[d(αMeS)][Ala(4-THP)]Q[Dab][Sar][dPro(4R-(4-pyridylmethyl))]) (ring closure inferred; not fully specified (bridges); printed as Bip4CO2H-4Pal-Phe4COOH-G-Proc4OH-SbMeW4F-Aib-S-W-daMeS-AlaTHP4-Q-Dab-Sar-dProc4CH24Pal, cyclic (macrolactam)) [SEQ ID NO: 207] | 0.044
cyclo([Bip(4'-COOH)][4Pal][Phe(4-COOH)]G[Pro(cis-4-F)][Trp(4-Cl)(βS-Me)][Aib]SW[Aib][Ala(pyrimidin-5-yl)]Q[Dab]G[dPro(4R-Bzl(4-F))]) (ring closure inferred; not fully specified (bridges); printed as Bip4CO2H-4Pal-Phe4COOH-G-Proc4F-SbMeW4Cl-Aib-S-W-Aib-PyrimAla-Q-Dab-G-dProc4Bn4F) [SEQ ID NO: 139] | 0.034
